Hello, the source for this data is PubChem BioAssay (NCI), in case you need it.

System: SK-MEL-2 melanoma
procedureSummary: NCI tumour cell line growth inhibition, 48 h
Listed compounds paired with reported GI50

INSERT INTO assay_data (compound, reported) VALUES
  ('CC(=O)OC1Oc2ccccc2-c2oc(=O)c(-c3cc(=O)oc4cc(O)ccc34)cc21 (centres undefined)', '19.2 µM'),
  ('Clc1ccc2c(NCCCNc3nccc(Nc4ccc(Br)cc4)n3)ccnc2c1', '2.1 µM'),
  ('COc1ccc2c(c1)CCC1C2CC[C@@]2(C)C1CC1=CC(COC(C)=O)C3C(=O)c4ccccc4C(=O)C3C12 (some centres undefined)', '> 100 µM');

Input: Quick check: GI50 of CCOC(=O)/C=C/C(C(=O)/C=C/c1ccc(OC2CCCCO2)c(OC)c1)=C(O)\C=C\c1ccc(OC2CCCCO2)c(OC)c1 (centres undefined) ?
Output: 3.27 µM
